Origin of the recorded values: PubChem BioAssay AID651640

assay: inhibitors of DENV2 cytopathic effect, primary screen, cell-based, plate reader, single concentration (AID 651640); conditions: DENV2-infected cells, cytopathic effect rescue, at 9.99 µM, stronger effect = higher value;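 note: 0% = median of neutral control wells and 100% = median of positive control wells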
Among all 350,000 compounds or so, about 6,000 (1.7%) were called active. About 5% were inconclusive and are not listed. The sample as a whole holds a higher share of actives than the screen did.
measuredProperty: CPE inhibition (%)

compound=Cc1cccc(NC(=O)COC(=O)CCc2ccccc2)c1C numericreadout=0.193
compound=C[C@@H]1CCCCO[C@@H](CN(C)C(=O)NC2CCCCC2)[C@H](C)CN([C@@H](C)CO)C(=O)c2cc(NC(=O)Nc3ccc(F)cc3)ccc2O1 numericreadout=24.1
compound=C[C@@H]1CCCCO[C@H](CN(C)C(=O)NC2CCCCC2)[C@H](C)CN([C@@H](C)CO)C(=O)c2cc(NC(=O)Nc3ccc(F)cc3)ccc2O1 numericreadout=3.1
compound=Cc1c(C(=O)NCCN2C(=O)S/C(=C\c3cccs3)C2=O)cccc1[N+](=O)[O-] numericreadout=27
compound=O=C([C@@H]1[C@@H](CO)[C@@H]2Cn3c(ccc(C4=CCCCC4)c3=O)[C@H]1N2Cc1nccs1)N1CCCCC1 numericreadout=-3.86
compound=COc1ccc(CCNC(=S)N2CCN(S(=O)(=O)c3ccc(F)cc3)CC2)cc1 numericreadout=53.1
compound=C[C@H](CO)N1C[C@H](C)[C@H](CN(C)S(=O)(=O)c2ccc(C#N)cc2)Oc2ncc(-c3cccc(F)c3)cc2C1=O numericreadout=2.2
compound="COc1ccc(C2=NOC(Cn3nc(C(=O)NCc4ccc5c(c4)OCO5)cc3-c3ccccc3)C2)cc1 (stereo not drawn)" numericreadout=10.2
compound=O=C(Nc1ccccc1)N[C@@H]1CC[C@H](CCn2cc(C3(O)CCCC3)nn2)O[C@@H]1CO numericreadout=-11.6
compound=COc1ccccc1Cc1c(-c2ccc(F)cc2)nc2ccc(C)cn12 numericreadout=-9.92
compound=COc1ccc(NC(=O)Nc2ccc3c(c2)C(=O)N([C@@H](C)CO)C[C@H](C)[C@@H](CN(C)C(=O)Nc2cccc4ccccc24)OCCCC[C@@H](C)O3)cc1 numericreadout=-3.89
compound=C[C@@H]1CCCCO[C@@H](CN(C)C(=O)CCCN(C)C)[C@H](C)CN([C@@H](C)CO)C(=O)c2cc(NC(=O)Nc3ccccc3)ccc2O1 numericreadout=-0.42
compound=COc1ccc(NC(=O)N(C)C[C@@H]2Oc3ccc(NC(=O)CCC(F)(F)F)cc3C(=O)N([C@@H](C)CO)C[C@H]2C)cc1 numericreadout=-3.47
compound=CCCNC(=O)Nc1ccc2c(c1)OC[C@H](C)N(Cc1ccccc1)C[C@H](C)[C@H](OC)CN(C)C2=O numericreadout=14.2
compound="O=C(NCc1cc(C(F)(F)F)cc(C(F)(F)F)c1)C1CC(c2cccc(F)c2)=NO1 (stereo not drawn)" numericreadout=23.7
compound=CC(C)CC#Cc1ccc([C@H]2[C@H]3CN(C(=O)c4cnccn4)CC(=O)N3[C@H]2CO)cc1 numericreadout=6.05
compound=O=C(NC[C@@H]1[C@@H](c2ccccc2)[C@H](CO)N1C(=O)Cc1cccnc1)C1CC1 numericreadout=-4.58
compound="O=C(NCc1cc(F)cc(C(F)(F)F)c1)C1CCC(=O)N(C2CCCC2)C1 (stereo not drawn)" numericreadout=0.846
compound=COc1ccc(NC(=O)Nc2ccc3c(c2)C(=O)N([C@H](C)CO)C[C@@H](C)[C@H](CN(C)Cc2ccccc2)O3)cc1 numericreadout=-6.1
compound=CCN(CC(=O)NCC(=O)Nc1cccc(C)c1C)Cc1ccccc1 numericreadout=61.4
compound=COc1ccc(CCC(=O)N2CCN(S(=O)(=O)c3ccc(OC)cc3)CC2)cc1 numericreadout=-8.26
compound=C[C@@H]1CN([C@@H](C)CO)C(=O)c2cc(NC(=O)Nc3ccc4c(c3)OCO4)ccc2O[C@@H](C)CCCCO[C@@H]1CN(C)C(=O)Nc1ccc2c(c1)OCO2 numericreadout=0.286
compound=CCOC(=O)c1c(NC(=O)CSc2cn(CC)c3ccccc23)sc2c1CCC2 numericreadout=5.51
compound=C[C@@H]1CCCCO[C@H](CN(C)C(=O)Nc2cccc3ccccc23)[C@@H](C)CN([C@@H](C)CO)C(=O)c2cc(NC(=O)Nc3ccc(F)cc3)ccc2O1 numericreadout=32.7
compound=COc1ccccc1C#Cc1ccc([C@H]2[C@H](CO)N3CCCCN(C(=O)C4CCC4)C[C@@H]23)cc1 numericreadout=-8.41
compound=C[C@@H]1CN([C@@H](C)CO)C(=O)c2cc(NC(=O)Nc3ccc(C(F)(F)F)cc3)ccc2O[C@@H](C)CCCCO[C@H]1CN(C)C(=O)CCCN(C)C numericreadout=-0.11
compound=Cc1c(C(=O)NCCCc2ccccc2)cccc1[N+](=O)[O-] numericreadout=4.47
compound=Cc1nn(Cc2ccccc2)c(C)c1C(=O)NCCN1C(=O)S/C(=C\c2ccc(F)cc2)C1=O numericreadout=-3.31
compound=C[C@H](CO)N1C[C@H](C)[C@@H](CN(C)Cc2ccc(C(F)(F)F)cc2)Oc2ccc(NC(=O)Cn3cnnn3)cc2CC1=O numericreadout=7.25
compound=O=C(N[C@@H]1CC[C@@H](CCn2cc(-c3ccccn3)nn2)O[C@@H]1CO)c1ccccc1 numericreadout=-2.85
compound=COc1ccc(CCNC(=S)N2CCN(S(=O)(=O)c3ccc(Cl)cc3)CC2)cc1 numericreadout=0.363
compound=CCOC(=O)c1c(NC(=O)Cn2nc(C(F)(F)F)cc2C)sc2c1CCC2 numericreadout=-2.63
compound=CO[C@@H]1CN(C)C(=O)c2cc(NC(=O)Nc3cc(F)ccc3F)ccc2OC[C@H](C)N(C)C[C@@H]1C numericreadout=-0.0135
